measuredTarget: human 5-HT2C receptor (Homo sapiens, UniProt P28335)
Construct: expressed in transfected cells; host or cells: HeLa (HeLa-5-HT2C cell line)
Sequence (P28335 33-458): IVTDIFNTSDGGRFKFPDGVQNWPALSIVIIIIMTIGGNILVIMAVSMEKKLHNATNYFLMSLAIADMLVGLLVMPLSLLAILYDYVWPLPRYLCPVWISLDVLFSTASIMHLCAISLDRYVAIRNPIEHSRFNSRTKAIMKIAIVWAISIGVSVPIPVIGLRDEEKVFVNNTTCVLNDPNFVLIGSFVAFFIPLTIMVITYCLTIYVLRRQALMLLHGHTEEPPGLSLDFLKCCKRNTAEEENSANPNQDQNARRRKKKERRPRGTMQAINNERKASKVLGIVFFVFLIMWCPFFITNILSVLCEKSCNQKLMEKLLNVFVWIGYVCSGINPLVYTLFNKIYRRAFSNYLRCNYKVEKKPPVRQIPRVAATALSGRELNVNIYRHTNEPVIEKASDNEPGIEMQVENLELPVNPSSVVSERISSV
experimentNotes: Competition binding to the human 5-HT2C receptor ([3H]mesulergine, HeLa-5-HT2C membranes)
setupConditions: from Ki values, Table 1
Property: Selectivity 5-HT2C/2A (binding, in parentheses); scope: individual molecules
Answer as a number with no unit attached.

Input: // Selectivity 5-HT2C/2A (binding, in parentheses) lookup, key: `COc1ccc(Br)cc1CNCCc1c[nH]c2ccccc12`
Output: 8.22

Input: Queued: `Brc1ccccc1CNCCc1c[nH]c2ccccc12`
Output: 0.57

Input: Now the same for `Oc1cccc(Br)c1CNCCc1c[nH]c2ccccc12`
Output: 15

Input: And the next one, `COc1ccc(OC)c(CNCCc2c[nH]c3ccccc23)c1` ?
Output: 3.85

Input: Then this molecule: `Clc1ccc(CNCCc2c[nH]c3ccccc23)cc1`
Output: 0.73

====

Measured Ki by item
measuredTarget: human 5-HT2C receptor (Homo sapiens, UniProt P28335)
Construct: expressed in transfected cells; host or cells: HeLa (HeLa-5-HT2C cell line)
experimentNotes: Competition binding to the human 5-HT2C receptor ([3H]mesulergine, HeLa-5-HT2C membranes)
setupConditions: human receptor, [3H]mesulergine displacement; no unit in the table, nM; read-out: 5-HT2C Ki (in parentheses) (converted)

Please review the entries below; each comes with its answer.
>>> df
                                   compound                            measuredtarget  observedproperty  observedresult
0  O=[N+]([O-])c1ccc(CNCCc2c[nH]c3ccccc23)cc1 [Compound 18]  human 5-HT2C receptor (Homo sapiens, UniProt P28335)                Ki         1410 nM
1  COc1ccc2[nH]cc(CCNCc3ccccc3)c2c1 [Compound 37]  human 5-HT2C receptor (Homo sapiens, UniProt P28335)                Ki         95.5 nM
2  Clc1ccccc1CNCCc1c[nH]c2ccccc12 [Compound 5]  human 5-HT2C receptor (Homo sapiens, UniProt P28335)                Ki         24.6 nM
3  COc1ccccc1CNCCc1c[nH]c2ccccc12 [Compound 3]  human 5-HT2C receptor (Homo sapiens, UniProt P28335)                Ki          224 nM
4  COc1ccc(CNCCc2c[nH]c3ccccc23)cc1 [Compound 13]  human 5-HT2C receptor (Homo sapiens, UniProt P28335)                Ki          355 nM

Input: What measured Ki goes with Fc1cccc(CNCCc2c[nH]c3ccccc23)c1 [Compound 9] ?
Output: 214 nM

Input: Same lookup for Oc1cccc(Br)c1CNCCc1c[nH]c2ccccc12 [Compound 33] , please.
Output: 112 nM

====

Let's look at some compounds and their measured Emax.
measuredTarget: human 5-HT2A receptor (Homo sapiens, UniProt P28223)
Construct: expressed in transfected cells; host or cells: CHO (CHO-5-HT2A cell line)
Sequence (P28223 whole entry): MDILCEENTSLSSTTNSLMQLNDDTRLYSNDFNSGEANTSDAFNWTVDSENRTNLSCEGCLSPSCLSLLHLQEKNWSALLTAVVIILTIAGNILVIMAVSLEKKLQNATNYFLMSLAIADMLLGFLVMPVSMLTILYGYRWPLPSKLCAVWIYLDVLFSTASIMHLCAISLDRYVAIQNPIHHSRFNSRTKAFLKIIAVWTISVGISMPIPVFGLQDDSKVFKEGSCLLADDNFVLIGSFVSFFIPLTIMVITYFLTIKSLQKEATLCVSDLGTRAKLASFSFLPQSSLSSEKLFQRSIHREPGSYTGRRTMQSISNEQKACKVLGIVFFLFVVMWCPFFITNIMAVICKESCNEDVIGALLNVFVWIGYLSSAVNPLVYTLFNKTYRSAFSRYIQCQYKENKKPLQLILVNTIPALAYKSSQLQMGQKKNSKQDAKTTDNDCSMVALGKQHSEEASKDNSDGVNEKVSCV
experimentNotes: Ca2+ mobilization in CHO h5-HT2A cells
Format: cell-based
setupConditions: relative efficacy, % of response to 5-HT
Answer in %, number only, no unit symbol.

                      moleculesmiles  observedproperty  observedresult
0   COc1ccc(CNCCc2c[nH]c3ccccc23)cc1              Emax             108
1   Oc1cccc(F)c1CNCCc1c[nH]c2ccccc12              Emax            49.3
2      Oc1ccccc1CNCCc1c[nH]c2ccccc12              Emax            94.1
3  Oc1cc(Br)ccc1CNCCc1c[nH]c2ccccc12              Emax            62.5

Input: Any idea what its Emax is? The compound is `COc1ccc(Cl)cc1CNCCc1c[nH]c2ccccc12`
Output: 69.2

Input: Please give the result for `Oc1cccc(CNCCc2c[nH]c3ccccc23)c1` too.
Output: 52.8

Input: Thanks! And `Fc1cccc(CNCCc2c[nH]c3ccccc23)c1` ?
Output: 33.8

Input: Item: `Brc1cccc(CNCCc2c[nH]c3ccccc23)c1`
Output: 32.6

Input: Query `COc1ccc2[nH]cc(CCNCc3ccccc3OC)c2c1` next
Output: 84

Input: # repeat for `Brc1ccccc1CNCCc1c[nH]c2ccccc12`
Output: 29.3

Input: Do the same for `COc1ccc(Br)cc1CNCCc1c[nH]c2ccccc12` please
Output: 69

Input: Then this compound: `COc1ccc2[nH]cc(CCNCc3ccccc3Br)c2c1`
Output: 44.8

Input: One more compound: `COc1ccc(OC)c(CNCCc2c[nH]c3ccccc23)c1`
Output: 39

Input: Follow-up entry: `COc1ccc2[nH]cc(CCNCc3ccc(Br)cc3)c2c1`
Output: 60.5

Input: Check `CCOc1ccc(CNCCc2c[nH]c3ccccc23)cc1` too.
Output: 36.7

Input: Next: `COc1ccccc1CNCCc1c[nH]c2ccccc12`
Output: 63

Input: Queued: `Clc1ccccc1CNCCc1c[nH]c2ccccc12`
Output: 25.5

Input: Record: `COc1ccc(O)c(CNCCc2c[nH]c3ccc(OC)cc23)c1`
Output: 43.6

Input: Note, next up: `Oc1cccc(Br)c1CNCCc1c[nH]c2ccccc12`
Output: 34.4

Input: Also need `COc1ccc(CNCCc2c[nH]c3ccccc23)cc1OC` , thanks.
Output: 50.5

Input: Query `Oc1c(Br)cccc1CNCCc1c[nH]c2ccccc12` next
Output: 40.4

Input: Then `Cc1ccccc1CNCCc1c[nH]c2ccccc12` ?
Output: 44.4
